- System: human αSyn
- ASSAY NOTES: Antibody-inducing ability in mice: ELISA antibody titer of immune serum with respect to human αSyn
- Type: in vivo, mouse
- Design: key: log titer relative to control conjugate (control = 1)
- EXPERIMENTAL CONTEXT: Example 10, modified linker; mice; titer of AJ-p54 or AJ-p150 as control being 1 (logarithm)
Response field class: enum, chosen by comparing Antibody titer with respect to human αSyn, relative to control against lower band = under 0.9, central band = from 0.9 up to 1, upper band = 1 and over

Query: Please let me know in which category the item ELKLIFLHRLKRLRKRLKRKϵKKKKKDQLGKNE [AJ-εKKK-p54] belongs.
Response: lower band

###

- Tested on: aggregated human αSyn
- ASSAY NOTES: Antibody-inducing ability in mice: ELISA antibody titer of immune serum with respect to aggregated human αSyn
- Format: in vivo, mouse
- EXPERIMENTAL CONTEXT: Example 9; mice, N = 4; titer of AJ-p150 or AJ-p54 as control being 1 (logarithm)
Non-standard residues stand in square brackets, D forms with d. No end group written: not given here. Ahx = NCCCCCC(=O)O
REPORTED METRIC: Antibody titer with respect to aggregated human αSyn, relative to control
Lab note: jot down the number only; don't add units.

Measured Antibody titer with respect to aggregated human αSyn, relative to control, ELKLIFLHRLKRLRKRLKRKXEAAEMPSEEG (ELKLIFLHRLKRLRKRLKRK[Ahx]EAAEMPSEEG) [AJ-p244] : 1.10

The sequence listed as ELKLIFLHRLKRLRKRLKRKXKKTQLGKNE (ELKLIFLHRLKRLRKRLKRK[Ahx]KKTQLGKNE) [AJ-p229] has a reported Antibody titer with respect to aggregated human αSyn, relative to control of 1.02

The sequence listed as ELKLIFLHRLKRLRKRLKRKXDAFEMPSEEG (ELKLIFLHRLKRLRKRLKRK[Ahx]DAFEMPSEEG) [AJ-p361] shows Antibody titer with respect to aggregated human αSyn, relative to control equal to 0.95

Entry ELKLIFLHRLKRLRKRLKRKXKKDELGKDE (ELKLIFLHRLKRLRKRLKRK[Ahx]KKDELGKDE) [AJ-p298] ; Antibody titer with respect to aggregated human αSyn, relative to control = 0.93

According to the records, this sequence ELKLIFLHRLKRLRKRLKRKXEAYEMPSEE (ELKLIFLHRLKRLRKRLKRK[Ahx]EAYEMPSEE) [AJ-p150, AJ peptide linked to p150 via ε-Acp (X)] displays Antibody titer with respect to aggregated human αSyn, relative to control of 1

Value of Antibody titer with respect to aggregated human αSyn, relative to control reported for the sequence ELKLIFLHRLKRLRKRLKRKXKKNQLGKNE (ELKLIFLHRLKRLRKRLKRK[Ahx]KKNQLGKNE) [AJ-p237] is 0.95

Recorded result, ELKLIFLHRLKRLRKRLKRKXAAYEMPSEEG (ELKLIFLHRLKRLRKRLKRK[Ahx]AAYEMPSEEG) [AJ-p242] , Antibody titer with respect to aggregated human αSyn, relative to control: 1.12

For record ELKLIFLHRLKRLRKRLKRKXKKDQLGKNE (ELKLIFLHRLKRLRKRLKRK[Ahx]KKDQLGKNE) [AJ-p54, AJ peptide linked to p54 via ε-Acp (X)] the listed Antibody titer with respect to aggregated human αSyn, relative to control is 1

Recorded Antibody titer with respect to aggregated human αSyn, relative to control (sequence ELKLIFLHRLKRLRKRLKRKXHAFEMPSEEG (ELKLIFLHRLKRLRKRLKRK[Ahx]HAFEMPSEEG) [AJ-p347] ): 0.97
